assay: qHTS Assay for Lipid Storage Modulators in Drosophila S3 Cells; settings: BODIPY lipid droplet fluorescence, 18-24 h, cells fed with added oleic acid; measured here: cell count max response;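 note: cells counted by Cell Tracker Red CMTPX staining in the red channel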
Hit rate of the full screen: of about 320,000 compounds, about 2,100 (0.66%) were called active. Roughly 53% stayed inconclusive and do not appear here. This excerpt belongs to a sample that is enriched for actives.
cell number change reference
Write the numeric value and append its unit.

For the compound shown here, `CCOCCCN1CN(S(=O)(=O)c2ccc(Cl)cc2)c2nc3ccccc3nc21` , give the reported cell number change.
-11.9%

Also, `CCN(CC)c1ccc(/C=C(\C#N)C(N)=S)cc1` please.
-2.75%

`CN(C)CCCNc1ccc(-c2cc(Nc3cccc(Cl)c3)ncn2)cn1` , same question.
7.36%

Repeat for the following compound: CCC(C)c1ccccc1NC(=O)c1[nH]c(C)c(C(C)=O)c1C (centres undefined)
-4.58%
